- studyTarget: CB2R (Homo sapiens)
- Sequence (P34972 whole entry): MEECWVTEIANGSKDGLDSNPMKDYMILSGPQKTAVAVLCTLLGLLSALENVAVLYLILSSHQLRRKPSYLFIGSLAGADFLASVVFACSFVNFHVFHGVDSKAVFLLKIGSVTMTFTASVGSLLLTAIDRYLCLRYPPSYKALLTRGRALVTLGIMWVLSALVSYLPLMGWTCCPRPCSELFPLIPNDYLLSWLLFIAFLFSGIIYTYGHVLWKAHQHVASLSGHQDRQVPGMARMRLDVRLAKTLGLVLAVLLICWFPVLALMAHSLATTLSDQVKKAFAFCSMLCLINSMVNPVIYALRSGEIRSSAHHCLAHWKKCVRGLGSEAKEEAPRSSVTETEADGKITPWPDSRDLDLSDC
- assayProtocol: CB2R radioligand binding competition ([3H]CP55,940)
- Set-up: expressed in transfected cells; host or cells: HEK-293T (HEK-CB2 cell line)
- conditionInfo: selectivity index, affinity ratio
endpointName: SI Ki CB1R/Ki CB2R

[[record]]
compound = "CCCCCn1nc(C(=O)N2CCCC[C@@H]2C(N)=O)c2ccccc21 [18j]"
studytarget = "CB2R (Homo sapiens)"
endpointname = "SI Ki CB1R/Ki CB2R"
measured = ">100"

[[record]]
compound = "NC(=O)[C@H]1CCCCN1C(=O)c1nn(CC2CCCCC2)c2ccccc12 [18n]"
studytarget = "CB2R (Homo sapiens)"
endpointname = "SI Ki CB1R/Ki CB2R"
measured = ">100"

[[record]]
compound = "COC(=O)[C@@H]1CCCN1C(=O)c1cn(Cc2ccc(F)cc2)c2ccccc12 [15g]"
studytarget = "CB2R (Homo sapiens)"
endpointname = "SI Ki CB1R/Ki CB2R"
measured = 0.3

[[record]]
compound = "COC(=O)[C@@H]1CCCCN1C(=O)c1cn(Cc2ccc(F)cc2)c2ccccc12 [16g]"
studytarget = "CB2R (Homo sapiens)"
endpointname = "SI Ki CB1R/Ki CB2R"
measured = 4

[[record]]
compound = "COC(=O)[C@H]1CCCCN1C(=O)c1cn(CCCCCF)c2ccccc12 [16d]"
studytarget = "CB2R (Homo sapiens)"
endpointname = "SI Ki CB1R/Ki CB2R"
measured = ">100"

[[record]]
compound = "NC(=O)[C@@H]1CCCCN1C(=O)c1cn(CCCCCF)c2ccccc12 [18c]"
studytarget = "CB2R (Homo sapiens)"
endpointname = "SI Ki CB1R/Ki CB2R"
measured = ">100"

[[record]]
compound = "CCCCCn1cc(C(=O)N2CCCC[C@H]2C(=O)OC)c2ccccc21 [16a]"
studytarget = "CB2R (Homo sapiens)"
endpointname = "SI Ki CB1R/Ki CB2R"
measured = 6

